Where these numbers come from: patent US20240300937A1

- study_system: CDK6/Cyclin D3 (Homo sapiens (Human), UniProt Q00534)
- Sequence (Q00534 whole entry): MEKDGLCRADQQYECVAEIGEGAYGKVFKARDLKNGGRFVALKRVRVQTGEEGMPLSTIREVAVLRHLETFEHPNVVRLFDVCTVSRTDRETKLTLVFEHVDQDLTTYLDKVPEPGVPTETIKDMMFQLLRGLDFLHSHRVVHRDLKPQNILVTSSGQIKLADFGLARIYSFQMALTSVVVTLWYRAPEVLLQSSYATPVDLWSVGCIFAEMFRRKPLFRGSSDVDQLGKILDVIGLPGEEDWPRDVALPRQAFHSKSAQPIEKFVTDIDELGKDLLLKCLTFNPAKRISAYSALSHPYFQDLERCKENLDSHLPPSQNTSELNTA
- Sequence (P30281 whole entry partner): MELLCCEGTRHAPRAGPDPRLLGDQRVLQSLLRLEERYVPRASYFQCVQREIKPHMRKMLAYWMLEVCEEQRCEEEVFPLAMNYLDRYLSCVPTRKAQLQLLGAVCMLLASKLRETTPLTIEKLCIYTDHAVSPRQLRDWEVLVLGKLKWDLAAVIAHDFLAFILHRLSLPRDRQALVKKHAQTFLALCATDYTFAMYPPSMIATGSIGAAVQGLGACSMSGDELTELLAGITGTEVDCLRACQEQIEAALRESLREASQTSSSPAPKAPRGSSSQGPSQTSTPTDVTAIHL
- procedure_summary: CDK6/Cyclin D3 kinase TR-FRET inhibition assay
- condition_notes: 1 mM ATP, Rb (Ser780)-biotin substrate, read-out: CDK6D3 IC50
# pIC50 per record follows
pIC50 here is simply -log10 of the concentration when that concentration is written in mol/L.

# molecule, pIC50
records = [
    ("CC(C)c1c(CN2[C@H](C)COC[C@@H]2C)cnc2ccc(-c3nc(N[C@@H]4CCOC[C@H]4O)ncc3F)cc12 [Example 68]", 6.40),
    ("CC(C)c1c(CN2CCC[C@@H](C#N)C2)cnc2ccc(-c3nc(N[C@@H]4CCOC[C@H]4O)ncc3F)cc12 [Example 62]", 6.24),
    ("CC(C)c1c(CN[C@@H]2CCOC2)cnc2ccc(-c3nc(N[C@@H]4CCOC[C@H]4O)ncc3F)cc12 [Example 35]", 6.23),
    ("Cc1c(-c2nc(N[C@@H]3CCOC[C@H]3O)ncc2F)ccc2ncc(CO)c(C(C)C)c12 [Example 120]", 6.83),
    ("CC(C)c1c(CN2CC3CC(C2)O3)cnc2ccc(-c3nc(N[C@@H]4CCOC[C@H]4O)ncc3F)cc12 [Example 14]", 6.64),
    ("CC(C)c1c([C@@H](C)N2CC[C@@H](F)C2)cnc2ccc(-c3nc(N[C@@H]4CCOC[C@H]4O)ncc3F)cc12 [Example 48]", 6.12),
]

Item under review: CC(C)c1c(CN[C@@H]2CCCOC2)cnc2c(F)cc(-c3nc(N[C@@H]4CCOC[C@H]4O)ncc3F)cc12 [Example 53] . Reported pIC50?
6.46

Item under review: CNC(=O)c1cnc2ccc(-c3nc(N[C@@H]4CCOC[C@H]4O)ncc3F)cc2c1C(C)C [Example 1] . Reported pIC50?
6.17

Item under review: CC(C)c1c(CN[C@H]2CCOC2)cnc2ccc(-c3nc(N[C@@H]4CCOC[C@H]4O)ncc3F)cc12 [Example 32] . Reported pIC50?
6.32

Item under review: CC(C)c1c(CN2CCOC[C@H]2C)cnc2ccc(-c3nc(N[C@@H]4CCOC[C@H]4O)ncc3F)cc12 [Example 58] . Reported pIC50?
6.39

Item under review: CC(C)c1c([C@H](C)O)cnc2ccc(-c3nc(N[C@@H]4CCOC[C@H]4O)ncc3F)cc12 [Example 41] . Reported pIC50?
6.77
